EXPERIMENT: Oral bioavailability in Sprague-Dawley rat at 2 mg/kg
Format: ADME, organism-based
CONDITION_LABEL: in vivo
PROPERTY_LABEL: bioavailability (%)
Report only the number, with the unit % understood.

CCc1c(CCN2CCC(C(=O)O)CC2)cccc1-c1nsc(-c2ccc(CC(C)C)c(C#N)c2)n1 ... 50

Item under review: CCc1c(CCN2CCC(C(=O)O)CC2)cccc1-c1nsc(-c2ccc(OC(C)C)c(Cl)c2)n1 . Reported bioavailability? 70

* * *

Listed next: entries and their corresponding EC50.
SYSTEM_UNDER_TEST: Sphingosine 1-phosphate receptor 1 (Homo sapiens, UniProt P21453)
Sequence (P21453 whole entry): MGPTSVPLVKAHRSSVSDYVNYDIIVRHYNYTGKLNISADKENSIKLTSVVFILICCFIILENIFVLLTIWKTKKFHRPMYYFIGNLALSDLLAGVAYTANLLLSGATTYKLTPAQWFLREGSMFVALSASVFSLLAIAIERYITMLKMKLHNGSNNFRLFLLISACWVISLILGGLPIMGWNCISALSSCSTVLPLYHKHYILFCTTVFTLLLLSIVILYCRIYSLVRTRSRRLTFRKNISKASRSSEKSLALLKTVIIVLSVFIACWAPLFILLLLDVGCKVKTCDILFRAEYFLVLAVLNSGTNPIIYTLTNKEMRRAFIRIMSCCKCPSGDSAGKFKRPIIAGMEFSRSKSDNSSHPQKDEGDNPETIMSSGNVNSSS
EXPERIMENT: Agonist activity against S1P1 receptor by cell based FRET assay
Report only the number, with the unit nM understood.

Before answering, review these 2 worked examples.
CCc1c(CCN2CCC(C(=O)O)CC2)cccc1-c1nsc(-c2ccc(OC(C)C)c(C(F)(F)F)c2)n1 ... 0.1
CCc1c(CCCC(=O)O)cccc1-c1noc(-c2ccc(OC(C)C)c(C#N)c2)n1 ... 0.2

Consider the additional compound presented here.
Item under review: CCc1c(CCCC(=O)O)cccc1-c1nsc(-c2ccc(OC(C)C)c(Cl)c2)n1 . Reported EC50? 3.98

* * *

Listed next: entries and their corresponding solubility.
EXPERIMENT: Solubility of the compound
Assay type: physicochemical
Report only the number, with the unit µg/mL understood.

CCc1c(CCCC(=O)O)cccc1-c1nnc(-c2ccc(OC(C)C)c(C#N)c2)o1 ... 187
CCc1c(CCCC(=O)O)cccc1-c1cnc(-c2ccc(OC(C)C)c(C#N)c2)nc1 ... 161

Item under review: CCc1c(CCCC(=O)O)cccc1-c1nnc(-c2ccc(OC(C)C)c(C#N)c2)s1 . Reported solubility? 256

* * *

EXPERIMENT: Percentage unbound in human plasma
Type: ADME, cell-free
I'd appreciate it if you marked entries Y when fraction unbound is lower than 0.002 and N when it is not.

Record excerpt, results attached:
CCc1c(CCCC(=O)O)cncc1-c1nsc(-c2ccc(OC(C)C)c(Cl)c2)n1 ... Y
CCc1c(CCCC(=O)O)cccc1-c1nsc(-c2ccc(OC(C)C)c(C#N)c2)n1 ... N
CCc1c(CCCC(=O)O)cccc1-c1cnc(-c2ccc(OC(C)C)c(C#N)c2)s1 ... Y
CCc1c(CCN2CC(O)C2)cccc1-c1nsc(-c2ccc(CC(C)C)c(C#N)c2)n1 ... Y

Let's switch to this compound now.
Answer whether the compound CCc1c(-c2nsc(-c3ccc(CC(C)C)c(C#N)c3)n2)ccnc1CCCC(=O)O has fraction unbound strictly less than 0.002 Y

* * *

EXPERIMENT: Percentage unbound in rat plasma
Format: ADME, cell-free
PROPERTY_LABEL: fraction unbound

Before answering, review these 6 worked examples.
CCc1c(CCCC(=O)O)cccc1-c1ccc(-c2ccc(OC(C)C)c(C#N)c2)s1 ... 0.0002
CCc1c(CCCC(=O)O)cccc1-c1nsc(-c2ccc(N3CCOCC3)c(C(F)(F)F)c2)n1 ... 0.0006
CCc1c(CCCC(=O)O)cccc1-c1noc(-c2ccc(OC(C)C)c(C#N)c2)n1 ... 0.0004
CCc1c(CCCC(=O)O)cccc1-c1ccc(-c2ccc(OC(C)C)c(C#N)c2)cc1 ... 0.0001
CCc1c(CCCC(=O)O)cccc1-c1nnc(-c2ccc(OC(C)C)c(C#N)c2)o1 ... 0.0021
CCc1c(CCCC(=O)O)cccc1-c1nsc(-c2ccc(N3CCN(C)CC3)c(C(F)(F)F)c2)n1 ... 0.0032

Consider the additional molecule presented here.
Item under review: CCc1c(CN2CCC(C(=O)O)CC2)cccc1-c1nsc(-c2ccc(OC(C)C)c(C(F)(F)F)c2)n1 . Reported fraction unbound? 0.0038
